All values here come from patent US20260199576A1.

- measurementTarget: T1, Biotinylated human integrin αvβ6 (ACROBiosystems, product number IT6-H82E4) (human, UniProt P06756 31-992; P18564 22-707, biotinylated (Avi tag at the C-terminus) ; Biotin on the Avi tag at the C-terminus of the αv chain; the tag is not in the letters.)
- T1 construct: Bought heterodimer; also called biotinylated integrin αvβ6; not shown: basic tail on the β6 chain
- T1 sequence (P06756 31-992 limits assumed, chain 1 of 2): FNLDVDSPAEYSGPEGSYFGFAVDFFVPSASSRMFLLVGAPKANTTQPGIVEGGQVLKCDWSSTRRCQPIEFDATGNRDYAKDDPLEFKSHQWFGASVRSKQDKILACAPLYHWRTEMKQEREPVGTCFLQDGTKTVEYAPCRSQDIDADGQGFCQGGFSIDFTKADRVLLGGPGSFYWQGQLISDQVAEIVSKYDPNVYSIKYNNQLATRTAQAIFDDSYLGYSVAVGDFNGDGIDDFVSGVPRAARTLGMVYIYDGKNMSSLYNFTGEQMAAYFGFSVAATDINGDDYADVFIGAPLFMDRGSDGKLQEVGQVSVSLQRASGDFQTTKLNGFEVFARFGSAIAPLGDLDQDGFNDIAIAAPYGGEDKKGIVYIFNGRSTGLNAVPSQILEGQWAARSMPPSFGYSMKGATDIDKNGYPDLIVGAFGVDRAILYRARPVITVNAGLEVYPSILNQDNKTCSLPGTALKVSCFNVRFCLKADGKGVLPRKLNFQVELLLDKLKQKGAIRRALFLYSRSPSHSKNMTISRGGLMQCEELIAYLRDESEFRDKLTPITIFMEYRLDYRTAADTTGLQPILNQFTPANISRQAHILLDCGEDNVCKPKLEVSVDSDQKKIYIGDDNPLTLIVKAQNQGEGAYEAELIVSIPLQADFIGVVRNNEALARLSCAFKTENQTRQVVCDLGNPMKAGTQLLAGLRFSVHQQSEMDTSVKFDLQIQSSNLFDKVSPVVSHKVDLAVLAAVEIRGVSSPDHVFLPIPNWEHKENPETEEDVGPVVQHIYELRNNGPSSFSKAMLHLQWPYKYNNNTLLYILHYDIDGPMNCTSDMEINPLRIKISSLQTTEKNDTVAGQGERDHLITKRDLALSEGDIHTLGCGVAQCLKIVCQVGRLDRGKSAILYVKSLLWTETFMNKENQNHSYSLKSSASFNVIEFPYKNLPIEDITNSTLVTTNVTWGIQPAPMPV
- T1 sequence (P18564 22-707 limits assumed, chain 2 of 2): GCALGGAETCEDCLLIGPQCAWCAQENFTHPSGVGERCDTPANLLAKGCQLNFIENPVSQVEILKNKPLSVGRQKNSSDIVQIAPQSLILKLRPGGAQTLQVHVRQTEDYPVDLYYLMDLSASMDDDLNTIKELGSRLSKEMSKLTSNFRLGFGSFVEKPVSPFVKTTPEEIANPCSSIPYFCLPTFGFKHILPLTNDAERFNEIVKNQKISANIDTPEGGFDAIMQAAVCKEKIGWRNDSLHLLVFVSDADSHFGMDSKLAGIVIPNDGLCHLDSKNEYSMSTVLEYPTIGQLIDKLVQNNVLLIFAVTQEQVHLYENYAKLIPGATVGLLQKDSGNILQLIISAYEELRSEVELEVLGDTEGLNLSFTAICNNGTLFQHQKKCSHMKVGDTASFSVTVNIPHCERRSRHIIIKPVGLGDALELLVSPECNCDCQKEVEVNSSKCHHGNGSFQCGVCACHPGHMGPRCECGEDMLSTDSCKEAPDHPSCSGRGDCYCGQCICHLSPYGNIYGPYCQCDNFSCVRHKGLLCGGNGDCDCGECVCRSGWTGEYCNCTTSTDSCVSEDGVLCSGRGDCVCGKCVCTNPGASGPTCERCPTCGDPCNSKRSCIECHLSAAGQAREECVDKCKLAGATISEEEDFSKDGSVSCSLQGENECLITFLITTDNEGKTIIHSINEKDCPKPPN
- assay: BLI (Octet RED96), biotinylated integrin αvβ6 on biosensor, antibody in solution
pKd: −log10 of the molar value.

>  <binder>
UC antibody 9 (antibody, V domains shown, Human monoclonal IgG from a UC patient, expressed in CHO cells) VH: QVQLVESGGGVVQPGRSLRLSCAASGFTFSSYGMHWVRQAPGKGLEWVAFISYDGINKYYADSVKGRFTISRDNSKDTLYLQMNSLRAEDTAVYYCAKVIPRIRGSGDKAGIKDYYYYGMDVWGQGTTVTVSS VL: QSVLTQPPSVSAAPGQKVTISCSGSSSNIGNNYVSWYQQLPGTAPKLLIYDNNKRPSGIPDRFSGSKSGTSATLGITGLQTGDEADYYCGTWDSSLSAVVFGGGTKLTVL

>  <pKd>
8.22

$$$$
>  <binder>
UC antibody 3 (antibody, V domains shown, Human monoclonal IgG from a UC patient, expressed in CHO cells) VH: QVQLVESGGGVVQPGRSLRVSCAASGFTFSIYGMHWVRQAPGKGLEWVAVISSDGTNQYYADSVKGRFTISRDNSNNTVYLQMNSLGGEDTAVYYCAKDRGRRGDSGWYRHFDYWGQGTLVTVSS VL: QSVLTQPPSVSAAPGQKVTISCSGSSSNNGNNYVSWYQQVPGTAPKLLIYDNNKRPSGIPDRFSGSKSGTSATLGITGLQTGDEADYYCGTWDSSLSAVVFGGGTKLTVL

>  <pKd>
7.82

$$$$
